- Measured On: Aurora kinase A (Homo sapiens) (UniProt O14965)
- Sequence (O14965 whole entry): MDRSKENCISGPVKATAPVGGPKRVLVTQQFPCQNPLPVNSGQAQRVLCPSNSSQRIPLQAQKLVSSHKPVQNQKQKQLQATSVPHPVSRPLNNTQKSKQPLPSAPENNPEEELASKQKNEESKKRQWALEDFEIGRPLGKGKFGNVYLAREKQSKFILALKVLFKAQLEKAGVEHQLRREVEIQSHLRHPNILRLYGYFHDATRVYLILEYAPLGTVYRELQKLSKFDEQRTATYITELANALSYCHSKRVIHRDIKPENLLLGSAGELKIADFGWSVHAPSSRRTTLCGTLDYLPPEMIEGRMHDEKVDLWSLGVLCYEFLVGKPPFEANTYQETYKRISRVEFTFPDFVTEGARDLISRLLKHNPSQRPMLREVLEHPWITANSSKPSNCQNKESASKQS
- Experimental Conditions: Compound concentration 20.0 uM
- Description: Thermal Shift Assay. Domain: start/stop: E122-S403
Categorized via ΔTm: bottom end = under -2 °C, midrange = from -2 °C up to -0.5 °C, top end = -0.5 °C and over

Would you please look over these solved cases?
> print(dat)
                                   molecule    category
1  Cc1cc(C(=O)CN2CCCCC2)c(C)n1-c1ccc(Cl)cc1    midrange
2      COc1ccc([C@@H]2CNC(=O)C2)cc1OC1CCCC1  bottom end
3  Nc1ncnc2c1ncn2[C@@H]1O[C@H](C[C@@H](N)CC[C@H](N)C(=O)O)[C@@H](O)[C@H]1O    midrange
4  CCN(c1cc(C#CCN2CCOCC2)cc(C(=O)NCc2c(C)cc(C)[nH]c2=O)c1C)[C@H]1CC[C@H](N(C)CCOC)CC1    midrange
5  CC(C)(C)NS(=O)(=O)c1cccc2c(NC(=O)[C@H](Cc3ccccc3)NC(=O)C3CCCCC3)cccc12  bottom end
6  O=C(NCCCOc1ccc2[nH]c(=O)ccc2c1)N(C1CC1)[C@@H]1CCCC[C@H]1O  bottom end
7   CCCCN(Cc1ccc(C(=O)NO)cc1)C(=O)Nc1ccccc1     top end
8  CCCSc1nc(N[C@@H]2C[C@H]2c2ccc(F)c(F)c2)c2nnn([C@@H]3C[C@H](OCCO)[C@@H](O)[C@H]3O)c2n1  bottom end

Into which category would you place "Cc1ncccc1-c1cnc(NCc2c(F)ccc3c2CCO3)n2cnnc12" ?
top end

Next molecule up: "O=C1CCc2cc(OCCCCc3nnnn3C3CCCCC3)ccc2N1"
midrange

Next molecule up: CC(C)(C)OC(=O)N1CCN(C(=O)n2cc(-c3ccc(OC(F)(F)F)cc3)nn2)C(Cc2ccccc2)C1 (stereo not given)
midrange

Next molecule up: "CN1CCN(c2nc(-c3ccc(C(=O)NC4(C(=O)NCC#N)CCCCC4)cc3)cs2)CC1"
top end

----------
- Measured On: Transcription intermediary factor 1-alpha (Homo sapiens)
- Experimental Conditions: Compound concentration 20.0 uM
Residues, ends and D or L forms follow the SMILES beside them. *: point of attachment. CH2Cl = ClC*
Labelling field: enter met if recorded ΔTm is less than -0.6 °C. Enter not met if it equals or exceeds that cut-off.

Would you please look over these solved cases?
> print(dat)
                                   compound  category
1            CCCCCCCCCCCCCCCCNNC(=O)c1cccs1       met
2         NC(=O)c1ccc(Oc2ccc(C(N)=O)cc2)cc1       met
3  COCCOCCn1nc2c(c1C)-c1c(Cl)ccc3c1c(C)c(C(=O)O)n3CCCOc1cc(cc3c(F)c(Cl)ccc13)CCc1cc(nn1C)CSC2       met

Lab log: compare recorded ΔTm with -0.6 °C; is it strictly lower for "CC(C)NC(=O)c1ccc(OC(F)F)c(OCC2CC2)c1" ?
not met

Next compound up: COc1ccc(C2C(C#N)=C(N)OC3=C2C(=O)CC(c2cccc4ccccc24)C3)cc1 (centres undefined)
not met

Next compound up: "Nc1nc(NC2CC2)cc(-c2cccc(Cl)c2Cl)n1"
not met

Next compound up: "Cn1cc(-c2ccncc2)c(-c2ccc(OCc3ccc4ccccc4n3)cc2)n1"
not met

Next compound up: "COc1ccc(OC)c(-c2nnc3n2N=C(c2ccc(OC)c(OC)c2)CS3)c1"
not met

Next compound up: "COc1cc(C(=O)N2C[C@H](N)CC[C@@H]2C)cc2nc(-c3cc4cccnc4n3CC3CC3)n(C)c12"
not met

Next compound up: CC(=O)N[C@@H](Cc1ccccc1)C(=O)N[C@@H](CC(C)C)C(=O)N[C@H](C(=O)N[C@@H](CC(=O)O)C(=O)CCl)[C@@H](C)O (Ac-FLTD-CH2Cl)
met

Next compound up: "O=[N+]([O-])c1ccc(CSc2ncnc3c2ncn3[C@@H]2O[C@H](CO)[C@@H](O)[C@H]2O)cc1"
not met

Next compound up: "CC(C)(C)c1ccc(S(=O)(=O)NCc2ccc(C(=O)Nc3cccnc3)cc2)cc1"
not met

Next compound up: "CS(=O)(=O)N1CCN(C(=O)c2cnc3ccc(F)cc3c2N2CCC(C#N)(c3ccccc3)CC2)CC1"
not met

Next compound up: "CN(C(=O)CCCOc1ccc2[nH]c(=O)ccc2c1)C1CCCCC1"
met

Next compound up: "CN1C(=O)c2c(nn(Cc3ccc(-c4cccc(F)n4)cc3)c2Nc2ccccc2)N2C1=N[C@@H]1CCC[C@@H]12"
not met

Next compound up: "CCCOc1ccc(NC(=O)CN2CCN(C)CC2)cc1-c1nc(CC)c(CC)c(=O)[nH]1"
met

Next compound up: "COc1cc(O)cc(CN2CCc3c(cc(Cn4ccn(C)c4=N)cc3-c3ccc(F)cc3C)C2=O)c1"
met
